Sourced from patent US20240150345A1

Reported pIC50 for target or system GCN2 (Homo sapiens), by entry.
pIC50: −log10 of the molar value.

COc1ncc(C#N)cc1S(=O)(=O)Nc1ccc(F)c(COc2cnc3[nH]nc(C)c3c2)c1F [Compound 50] = > 7.30

// each listed molecule needs a value for pIC50
1. COc1ncc(Cl)cc1S(=O)(=O)Nc1ccc(F)c(CCc2cnc3[nH]ncc3c2)c1F [Compound 7]
2. COc1ncc(F)cc1S(=O)(=O)Nc1ccc(F)c(COc2cnc3[nH]ncc3c2C)c1F [Compound 20]
3. COc1ncc(Cl)cc1S(=O)(=O)Nc1ccc(F)c(COc2cnc3cnn(C)c3c2)c1F [Compound 42]
4. COc1ncc(Cl)cc1S(=O)(=O)Nc1ccc(F)c(CCc2cnc3cn(C)nc3c2)c1F [Compound 17]
5. COc1ncc(Cl)cc1S(=O)(=O)Nc1ccc(F)c(COc2cnc3[nH]nc(C(C)C)c3c2)c1F [Compound 53]

Result:
["> 7.30", "6.30 to 7.30", "> 7.30", "> 7.30", "> 7.30"]

Batch request: pIC50 for each of the following molecules.
1. COc1ncc(Cl)cc1S(=O)(=O)Nc1ccc(F)c(CCc2ccc3[nH]ncc3n2)c1F [Compound 11]
2. COc1ncc(F)cc1S(=O)(=O)Nc1ccc(F)c(COc2cnc3[nH]ncc3c2C#N)c1F [Compound 27]

Result:
1. < 6.00
2. > 7.30
